System: L1210 leukemia ip in BDF1 mice, survival T/C
assay.details: NCI In Vivo Anticancer Drug Screen. Data for tumor model L1210 Leukemia (intraperitoneal) in B6D2F1 (BDF1) mice
protocol.conditions: endpoint: mean survival time; dose: 100.0 mg/kg/injection; schedule: Q01DX001 (ip); vehicle: other; higher = longer survival
Experimental: The antitumor activity of compounds was measured in mice bearing transplantable tumors. Survival or tumor size were measured and the results are expressed as the measurement made in the treated group (T) divided by the measurement made in the vehicle treated control group (C). The tumor model used in this assay is L1210 Leukemia (intraperitoneal) in B6D2F1 (BDF1) mice
Inconclusive results and toxic doses are left out.
Reported T/C values for the following compounds.

Completed entries (count: 4):
C/C=C\c1ccc(OC(=O)c2ccc([N+](=O)[O-])cc2)c(OC)c1 :: 97 % of control
Cc1nnc(NC(=O)CCl)s1 :: 107 % of control
CNC(=S)N/N=C1/C(=N\NC(=S)NC)C(=O)OC1C(O)CO (centres undefined) :: 93 % of control
CCCCC(C#N)C(O)C1CCCCC1 (centres undefined) :: 100 % of control

Lab request: please report T/C under test system L1210 leukemia ip in BDF1 mice, survival T/C for `CCC(=O)c1ccc(N2CCOCC2)cc1`
107 % of control

---

Test system: L1210 leukemia ip in BDF1 mice, survival T/C
assay.details: NCI In Vivo Anticancer Drug Screen. Data for tumor model L1210 Leukemia (intraperitoneal) in B6D2F1 (BDF1) mice
protocol.conditions: endpoint: mean survival time; dose: 25.0 mg/kg/injection; schedule: Q04DX003 (ip); vehicle: saline with Tween-80; higher = longer survival
Experimental: The antitumor activity of compounds was measured in mice bearing transplantable tumors. Survival or tumor size were measured and the results are expressed as the measurement made in the treated group (T) divided by the measurement made in the vehicle treated control group (C). The tumor model used in this assay is L1210 Leukemia (intraperitoneal) in B6D2F1 (BDF1) mice
Inconclusive results and toxic doses are left out.
T/C listing for selected compounds.

// returns reported T/C for input `Cc1cc(C)[c]([Hg][Cl])c(C)c1`
92 % of control

GET /values?readout=T/C&item= `NC(=S)N/N=C\c1ccccn1`
98 % of control

Request the reported T/C associated with `O=C(Nc1cccc([N+](=O)[O-])c1)c1ccc(Cl)c(Cl)c1`
115 % of control

Given `CCCCCCC(=C/c1ccccc1)/C=N/NC(=O)c1ccc[n+](C)c1` , state its recorded T/C.
93 % of control

---

Tested on: L1210 leukemia ip in BDF1 mice, survival T/C
assay.details: NCI In Vivo Anticancer Drug Screen. Data for tumor model L1210 Leukemia (intraperitoneal) in B6D2F1 (BDF1) mice
protocol.conditions: endpoint: mean survival time; dose: 200.0 mg/kg/injection; schedule: Q04DX003 (ip); vehicle: Klucel (hydroxypropylcellulose) (HPC); higher = longer survival
Toxic doses and inconclusive results are not listed.
parameter: T/C

Observe how each entry below is paired with its result.
O=[N+]([O-])c1ccc(-c2cnc(Nc3ccc(Cc4ccc(Nc5ncc(-c6ccc([N+](=O)[O-])cc6)s5)c(Cl)c4)cc3Cl)s2)cc1 :: 106 % of control
Nc1cccc2c1C(=O)c1cccc(NC(=O)c3ccccc3)c1C2=O :: 91 % of control
Cc1cccc(NC(=O)NC(C)C)c1C :: 96 % of control
CCC(=O)Nc1cccc(Cl)c1 :: 97 % of control
Nc1ccc2nc(NCCCO)c3ccccc3c2c1 :: 113 % of control

Entry `CC(C)N(C(=S)SC(=S)N(C(C)C)C(C)C)C(C)C` : reported T/C = ?
96 % of control

Would you kindly share the measured T/C for `COc1ccc(S(=O)(=O)NC(=O)NC23CC4CC(CC(C4)C2)C3)cc1` ?
97 % of control

Please give the measured T/C for this molecule: `Cc1c(C(=O)O)c(C)c([N+](=O)[O-])c(C)c1[N+](=O)[O-]`
95 % of control

Entry `C/C(=C\n1ccccc1=N)C(=O)c1ccc(F)cc1` : reported T/C = ?
98 % of control

Looking for the measured T/C of `CCCCNc1nc(SC)nc2nc[nH]c12` , can you help?
96 % of control

Which measured T/C value corresponds to COc1ccc(C)cc1NC(=S)NC(=O)C(C)Oc1ccccc1 (stereo unspecified) ?
103 % of control

---

System: L1210 leukemia ip in BDF1 mice, survival T/C
assay.details: NCI In Vivo Anticancer Drug Screen. Data for tumor model L1210 Leukemia (intraperitoneal) in B6D2F1 (BDF1) mice
protocol.conditions: endpoint: mean survival time; dose: 100.0 mg/kg/injection; schedule: Q01DX009 (ip); vehicle: saline
Toxic doses and inconclusive results are not listed. No stated cut-off is given here; in the data, active means T/C of 150% or more; inactive means T/C below 125%.
Pick one and only one: active, inactive

Below, 5 compounds whose answers are already recorded.
Nc1ncnc2c1ncn2CCCCl :: inactive
NC(N)=N/N=C/c1ccncc1 :: inactive
CCCC[Si](Cl)(CCCC)CCCC :: inactive
CCOC(=O)c1cc(N)c[nH]1 :: inactive
O/N=c1/cc(-c2cccs2)ss1 :: inactive

Hi, sorry to bother you, what did the test record for CC(CC=O)CCCC(C)(C)O (centres undefined) ?
inactive

Look up the recorded call for CCOC(=O)CC1(C)NC(=O)NC1=O (centres undefined) in this test.
inactive

Identify the outcome logged in this assay for the compound shown: CCOC(=O)C1(C(C)C)OC2(O)CCCCCN2C1=O (centres undefined)
inactive

Query: recorded result category for O=P1(NCCCl)OCCCN1CCCl (centres undefined) in this test
active

Tell me the recorded outcome of this test for O=C(Cc1ccccc1)NC(CSSCC(NC(=O)Cc1ccccc1)C(=O)O)C(=O)O (centres undefined) .
inactive

Identify the outcome logged in this assay for the compound shown: `O=c1c(O)cccc2cc(O)c(O)c(O)c12`
inactive

Lab log entry: `S=C(n1ccnc1)n1ccnc1` — outcome as called in the assay?
inactive

For `Clc1ccc(Cl)c(-c2csc(-c3cccnc3)n2)c1` , which call appears in the assay record?
inactive

I would be grateful if you could indicate the recorded call for `CCN(CC)c1ccc(N=Nc2ccc(S(=O)(=O)O)cc2)cc1` .
inactive

---

System: L1210 leukemia ip in BDF1 mice, survival T/C
assay.details: NCI In Vivo Anticancer Drug Screen. Data for tumor model L1210 Leukemia (intraperitoneal) in B6D2F1 (BDF1) mice
protocol.conditions: endpoint: mean survival time; dose: 400.0 mg/kg/injection; schedule: Q04DX003 (ip); vehicle: saline with Tween-80; higher = longer survival
Method: The antitumor activity of compounds was measured in mice bearing transplantable tumors. Survival or tumor size were measured and the results are expressed as the measurement made in the treated group (T) divided by the measurement made in the vehicle treated control group (C). The tumor model used in this assay is L1210 Leukemia (intraperitoneal) in B6D2F1 (BDF1) mice
Inconclusive results and toxic doses are left out.
parameter: T/C

Would you please look over these solved cases?
CCN(CC)C(=O)C(Cc1ccc(OC)c(OC)c1)C(Cc1ccc(OC)c(OC)c1)C(=O)O (stereo not drawn) :: 105 % of control
O=C1N/C(=N\OCCc2ccccc2)CC(NOCCc2ccccc2)N1 (stereo not drawn) :: 97 % of control
CC(=O)N(C)Nc1ccccc1 :: 106 % of control
CCOC1c2ccccc2-c2ccccc2N1C(=O)c1ccccc1 (stereo not drawn) :: 103 % of control
O=C(Cc1ccccc1)NC(CSSCC(NC(=O)Cc1ccccc1)C(=O)O)C(=O)O (stereo not drawn) :: 98 % of control

Query: T/C; subject: `Nc1ncnc2c1nnn2CCCCCC(=O)O`
97 % of control

What value of T/C has been recorded for this entry: `C=C(C)c1c2ccccc2cc2cccc(Sc3ccccc3)c12`
95 % of control

Given `CCCCC(O)(CCCC)C(CC)CC` , state its recorded T/C.
101 % of control

# T/C lookup, item `CCCN(CCC)c1ccc(N=Nc2cc(Cl)ccc2Cl)cc1`
91 % of control

Please report the recorded T/C for `CC(C)(C)NC(=O)Nc1ccc(O)cc1` .
105 % of control

What does the data say about its T/C? Entry: `Cc1ccccc1OCCCCCl`
100 % of control

So what does the record say about T/C for `Cc1cc(C)cc(C(C)(C)C)c1` ?
95 % of control

So what does the record say about T/C for `Nc1nc(CNc2ccc(Cl)cc2)nc(Nc2ccccc2)n1` ?
89 % of control

---

System: L1210 leukemia ip in BDF1 mice, survival T/C
assay.details: NCI In Vivo Anticancer Drug Screen. Data for tumor model L1210 Leukemia (intraperitoneal) in B6D2F1 (BDF1) mice
protocol.conditions: endpoint: mean survival time; dose: 50.0 mg/kg/injection; schedule: Q01DX009 (ip); vehicle: other
Toxic doses and inconclusive results are not listed. No stated cut-off is given here; in the data, active means T/C of 150% or more; inactive means T/C below 125%.
Respond only with the outcome that fits, drawn from active, inactive

The examples below pair each entry with its known result.
O=C1C(N2CCOCC2)=C(c2ccccc2)c2ccccc21 :: inactive
CN(Cc1cnc2nc(N)cc(N)c2n1)c1ccc(C(=O)NC(CCC(=O)O)C(=O)O)cc1 (centres undefined) :: active
CCCCCCCCCCCCSC(=O)CCC(=O)O :: inactive

Turning now to a further molecule:
Answer briefly: the call reported for COc1nc(Cl)nc(Cl)c1Cl (tested in a mixture with another compound) in this assay.
inactive

From: PubChem BioAssay AID248
